Assignment: determine reported self-cleavage for the given variants.
B1: HDV Ribozyme (parent)
chain: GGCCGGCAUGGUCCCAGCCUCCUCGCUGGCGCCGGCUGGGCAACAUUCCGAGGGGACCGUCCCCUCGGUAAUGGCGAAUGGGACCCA

- Variants of: B1
- experiment: self-cleavage, relative activity (ratio to wild type); higher = more cleavage; co-transcriptional

Name the recorded self-cleavage of the variant listed here: C7A U69G
0.751

Retrieve self-cleavage measured for A45C G73A and print it.
0.528

// fetch self-cleavage given entry G29C G80A
0.0692

Give the measured self-cleavage for C26U A77U
0.641

Input C48U U69A , output reported self-cleavage.
1.04

Look up and report measured self-cleavage for this entry: U79C A83G
0.253

# return recorded self-cleavage for entry G31U A77C
0.0489

Return reported self-cleavage. Input variant: A51U U72G
0.534

Fill in reported self-cleavage for this entry: C21U C32U
0.205

Hello, please tell me recorded self-cleavage for this one: G6A G10U
0.0963

Give the reported value of self-cleavage for this record: C36U U79A
0.253

Please supply the value of reported self-cleavage for the item C14G G53U
0.802

Please list self-cleavage recorded for the variant C22G U60C
0.0332

Specify measured self-cleavage for G34A C58U .
0.122

Output measured self-cleavage for this item: G25C U47A
0.0639

Give a short answer stating reported self-cleavage for G55A G59C .
1.06

Supply recorded self-cleavage for C30A C86U here.
0.68

Fill in self-cleavage for record G31U G40A
0.359

For the variant A51C G59U , report self-cleavage.
0.762

Item C24A G54C : provide self-cleavage
0.741

Note down self-cleavage recorded for C4A C26U
0.415

Retrieve self-cleavage measured for G6C C85A and print it.
0.0791
